- System: influenza A H1N1 virus
- run conditions: 200 µM peptide, 48 hr post-treatment, A549
assay endpoint: Neuraminidase activity normalized to vehicle

substance	value reported
IHTHARFLIT [CPEP139]	0,8832
TRVESENKVVILDSFD [CPEP93]	1,1147
EDPNEE [CPEP68]	0,7574
CPEP96: peptide of the viral peptide library; sequence page not shown (GRKKRRQRRRAHQ)	0,8043
CPEP98: peptide of the viral peptide library; sequence page not shown (PLPPTKAPPIPPPR)	1,0266
CPEP63: peptide of the viral peptide library; sequence page not shown (KARHKRRNRSSRS)	0,8323
EPLDLPPIIQ [CPEP45]	0,7336
EDLLNEPGQPLDLSC [CPEP104]	0,8372
CPEP103: viral library peptide from HCV NS4A targeting EEF1A1 (GCVVIVGRIVLSGK)	0,0978
RQARRNRRR [CPEP110]	0,8723
GHRMAWDMMMNWSP [CPEP107]	0,108
ACTNCYCKKCCFHCQVC [CPEP100]	1,0893
LERVIFPSVKIATLV [CPEP53]	0,9303
SVWIPVNEGASTSGM [CPEP77]	0,8793
CPEP136: peptide of the viral peptide library; sequence page not shown (VTNDCPNSSIVYE)	0,9602
